So I've got a bunch of compounds here, and I need their IC50 values.
Tested on: L1210
test.summary: Cytotoxicity against mouse L1210 cells
Format: functional, cell-based

Task: Lookup: IC50 / L1210 / O=C1C=C2C=C[C@@H]3C[C@@]2(O1)[C@@H]1CCCCN1O3 [PHYLLANTIDINE]
Result: > 5 µg/mL

Task: Repeat for the following compound: CO[C@H]1CCN2O[C@@H]3C=CC4=CC(=O)O[C@]4(C3)[C@@H]2C1
Result: > 5 µg/mL

Task: Repeat for the following compound: CO[C@H]1CCN2[C@@H](C1)[C@]13C[C@H]2[C@@H](OC)CC1=CC(=O)O3
Result: > 5 µg/mL

Task: Repeat for the following compound: O=C1C=C2C=C[C@@H]3C[C@@]2(O1)[C@H]1CCCCN31
Result: 1.9 µg/mL

Task: Repeat for the following compound: O=C1C=C2C=C[C@@H]3C[C@@]2(O1)[C@H]1C[C@@H](O)CCN31
Result: 3.7 µg/mL

Task: Repeat for the following compound: CO[C@H]1CC2=CC(=O)O[C@@]23C[C@@H]1N1CCCC[C@@H]13
Result: > 5 µg/mL
